- assayTarget: Clumping factor A (ClfA) (Staphylococcus aureus NRS384 (USA300))
- runDescription: filter
- details: BndU at every n (W); full-length clone also has fixed flanking regions not printed [BndU at 2,4,7,8,14,20,21,27,29,32,33,34,35,36,40]; SB18T, 5 mM MgCl2; full-length aptamer
testReadout: pKd
# pKd: negative log10 of molar concentration; output just the value

Consider the sequence ATCTGGTTCAAAGTGGCGATTGGGCATCTGGTTTTTAAGT [4503-73] and give its measured pKd. 9.10
